These data points were gathered from PubChem BioAssay (NCI).

Test: NCI Yeast Anticancer Drug Screen. Data for the rad18 strain (AID 177)
Conditions: S. cerevisiae rad18 mutant growth inhibition; at 3.7 µM; active compounds read high
About 79,000 compounds went through this panel and 15% of them were active in at least one assay; those are over-represented in the sample as a whole.
growth inhibition overview
Expressed in %, but write only the number.

These recorded examples may help you get a feel for the data.
compound: Cc1cccc(C)c1NC(=O)CCC(=O)C(C)C(=O)c1ccc(O)cc1 (stereo unspecified)
measurement_unit: %
growth inhibition: -1
--
compound: CCCCCCCCCCCCCCCCCCN(C)C(COC)COP(=O)([O-])OCC[N+](C)(C)C (stereo unspecified)
measurement_unit: %
growth inhibition: -24
--
compound: O=[N+]([O-])c1ccc2[nH]c3c(-c4ccccc4)nccc3c2c1
measurement_unit: %
growth inhibition: -4
--
compound: CCC(C)(C)c1ccc(Oc2ccccc2)c(N)c1
measurement_unit: %
growth inhibition: -7
--
compound: CCOC(=O)/C(=C\c1cccc(C)c1)C(C)=O
measurement_unit: %
growth inhibition: 12

Consider now this further compound.
Please fill in: growth inhibition reported for CCOC(=O)Nc1ccc(C)c(NC(=O)OCC)c1 = 14
